Answer each item with its documented abundance fitness.
B1: Glucocorticoid receptor, residues 419 to 494; numbered along this chain, P04150 (parent)
chain: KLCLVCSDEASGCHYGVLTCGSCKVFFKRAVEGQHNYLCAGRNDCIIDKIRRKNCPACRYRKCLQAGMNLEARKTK

Variants of: B1
Assay: abundance fitness (aPCA) (normalised: wild type 0, dead -1); higher = more abundant; growth selection in yeast, the domain comes from the species named
Settings: Homo sapiens
API note: the answer field is a bare number with no unit suffix.

# lookup: abundance fitness of "R52L"
-0.048

# lookup: abundance fitness of "K76A"
0.028

# lookup: abundance fitness of "C58L"
-0.789

# lookup: abundance fitness of "G67C"
-0.534

# lookup: abundance fitness of "D48L"
-0.437

# lookup: abundance fitness of "Y37C"
-0.299

# lookup: abundance fitness of "P56F"
-0.003

# lookup: abundance fitness of "R42W"
-0.077

# lookup: abundance fitness of "P56S"
-0.035

# lookup: abundance fitness of "D44T"
-0.023

# lookup: abundance fitness of "I46T"
0.029

# lookup: abundance fitness of "R51N"
-0.031

# lookup: abundance fitness of "L18I"
0.035

# lookup: abundance fitness of "K76E"
0.105

# lookup: abundance fitness of "K53C"
-0.263

# lookup: abundance fitness of "A72V"
-0.043

# lookup: abundance fitness of "G33S"
-0.045

# lookup: abundance fitness of "R61V"
0.064

# lookup: abundance fitness of "G33E"
-0.039

# lookup: abundance fitness of "A57V"
-0.656

# lookup: abundance fitness of "G16R"
-0.318

# lookup: abundance fitness of "K62L"
-0.048

# lookup: abundance fitness of "R59P"
-0.737

# lookup: abundance fitness of "A30T"
-0.064

# lookup: abundance fitness of "A72L"
-0.015

# lookup: abundance fitness of "E71C"
-0.052

# lookup: abundance fitness of "N43G"
-0.024

# lookup: abundance fitness of "L38A"
0.01

# lookup: abundance fitness of "V25M"
-0.094

# lookup: abundance fitness of "K28C"
-0.121

# lookup: abundance fitness of "Q34H"
-0.14

# lookup: abundance fitness of "A72N"
-0.037

# lookup: abundance fitness of "C6T"
-1.14

# lookup: abundance fitness of "L2G"
-0.017

# lookup: abundance fitness of "C13T"
0.003

# lookup: abundance fitness of "E71H"
-0.09

# lookup: abundance fitness of "C45M"
-1.18

# lookup: abundance fitness of "R52W"
-0.112

# lookup: abundance fitness of "L2N"
0.092

# lookup: abundance fitness of "C20Y"
-0.782

# lookup: abundance fitness of "I50N"
-0.018

# lookup: abundance fitness of "A72D"
-0.017

# lookup: abundance fitness of "V25E"
0.051

# lookup: abundance fitness of "E71F"
-0.072

# lookup: abundance fitness of "S22D"
0.136

# lookup: abundance fitness of "Q34V"
-0.073

# lookup: abundance fitness of "Q34C"
-0.028

# lookup: abundance fitness of "L4M"
0.001

# lookup: abundance fitness of "E71A"
-0.135

# lookup: abundance fitness of "E9R"
0.04

# lookup: abundance fitness of "Q65T"
-0.086

# lookup: abundance fitness of "F27D"
-0.912

# lookup: abundance fitness of "Q34A"
-0.016

# lookup: abundance fitness of "S11G"
-0.076

# lookup: abundance fitness of "G33D"
0.05

# lookup: abundance fitness of "D48K"
-0.487

# lookup: abundance fitness of "M68E"
-0.529

# lookup: abundance fitness of "A72G"
-0.023

# lookup: abundance fitness of "K1W"
-0.301

# lookup: abundance fitness of "H14N"
-0.086

# lookup: abundance fitness of "S7M"
-0.06

# lookup: abundance fitness of "L18N"
-0.1

# lookup: abundance fitness of "K28E"
0.007

# lookup: abundance fitness of "G21H"
-0.122

# lookup: abundance fitness of "K53W"
-0.075

# lookup: abundance fitness of "C6Y"
-0.653

# lookup: abundance fitness of "K53Q"
0.016

# lookup: abundance fitness of "M68H"
-0.551

# lookup: abundance fitness of "C55S"
-0.707

# lookup: abundance fitness of "K76Y"
-0.206

# lookup: abundance fitness of "Y15L"
-0.164

# lookup: abundance fitness of "A66G"
-0.109

# lookup: abundance fitness of "C6L"
-0.992

# lookup: abundance fitness of "S7P"
-0.757

# lookup: abundance fitness of "K76F"
0.006

# lookup: abundance fitness of "A30V"
0.026

# lookup: abundance fitness of "P56I"
-0.19

# lookup: abundance fitness of "E9C"
0.083

# lookup: abundance fitness of "I50T"
-0.007

# lookup: abundance fitness of "C3I"
-0.684

# lookup: abundance fitness of "L2S"
-0.023

# lookup: abundance fitness of "T75K"
0.007

# lookup: abundance fitness of "A66E"
-0.036

# lookup: abundance fitness of "R29M"
-0.113

# lookup: abundance fitness of "G12Y"
-0.206

# lookup: abundance fitness of "R29T"
-0.029

# lookup: abundance fitness of "H14Y"
-0.068

# lookup: abundance fitness of "A72K"
0.049

# lookup: abundance fitness of "D8L"
-0.646

# lookup: abundance fitness of "C3K"
-0.823

# lookup: abundance fitness of "C13F"
-0.005
